test: Mouse liver microsomal stability/clearance; assay type: in vitro ADME; conditions: mouse liver microsomes; second value of Human/Mouse cell; read-out: Liver microsomal clearance (Mouse)
Consider the following compounds and their measured microsomal CLint at 1 µM readings.
PROPERTY LABEL: microsomal CLint at 1 µM (µL/min/mg)

[[record]]
query_smiles = "CNS(=O)(=O)OC[C@@H]1N=C(c2ccc(Cl)cc2)c2cc(OC)ccc2-n2c(C)nnc21"
property_label = "microsomal CLint at 1 µM"
observed = 21

[[record]]
query_smiles = "CCCS(=O)(=O)OC[C@@H]1N=C(c2ccc(Cl)cc2)c2cc(OC)ccc2-n2c(C)nnc21"
property_label = "microsomal CLint at 1 µM"
observed = 39.7

[[record]]
query_smiles = "Cc1nnc2n1-c1ccc(C(=O)NCCO)cc1C(c1ccc(Cl)cc1)=N[C@H]2COS(C)(=O)=O"
property_label = "microsomal CLint at 1 µM"
observed = 6.3

[[record]]
query_smiles = "COc1ccc2c(c1)C(c1ccc(Cl)cc1)=N[C@@H](COS(=O)(=O)N(C)C)c1nnc(C)n1-2"
property_label = "microsomal CLint at 1 µM"
observed = 86

[[record]]
query_smiles = "Cc1nnc2n1-c1ccc(-c3cnn(CC(=O)N(C)C)c3)cc1C(c1ccc(Cl)cc1)=N[C@H]2COS(C)(=O)=O"
property_label = "microsomal CLint at 1 µM"
observed = 7.4

[[record]]
query_smiles = "COc1ccc2c(c1)C(c1ccc(Cl)cc1)=N[C@@H](COS(=O)(=O)C1CC1)c1nnc(C)n1-2"
property_label = "microsomal CLint at 1 µM"
observed = 8.9

[[record]]
query_smiles = "COc1ccc2c(c1)C(c1ccc(Cl)cc1)=N[C@@H](COS(C)(=O)=O)c1nnc(C)n1-2"
property_label = "microsomal CLint at 1 µM"
observed = 4.7

[[record]]
query_smiles = "COc1ccc2c(c1)C(c1ccc(C#N)cc1)=N[C@@H](COS(C)(=O)=O)c1nnc(C)n1-2"
property_label = "microsomal CLint at 1 µM"
observed = 3.4

[[record]]
query_smiles = "CCS(=O)(=O)OC[C@@H]1N=C(c2ccc(Cl)cc2)c2cc(OC)ccc2-n2c(C)nnc21"
property_label = "microsomal CLint at 1 µM"
observed = 8.1

[[record]]
query_smiles = "Cc1nnc2n1-c1ccc(-c3cnn(C)c3)cc1C(c1ccc(Cl)cc1)=N[C@H]2COS(C)(=O)=O"
property_label = "microsomal CLint at 1 µM"
observed = 8.6

[[record]]
query_smiles = "Cc1sc2c(c1C)C(c1ccc(Cl)cc1)=N[C@@H](COS(C)(=O)=O)c1nnc(C)n1-2"
property_label = "microsomal CLint at 1 µM"
observed = 22

[[record]]
query_smiles = "COc1ccc2c(c1)C(c1ccc(Cl)cc1)=N[C@@H](COS(N)(=O)=O)c1nnc(C)n1-2"
property_label = "microsomal CLint at 1 µM"
observed = 5

[[record]]
query_smiles = "Cc1nnc2n1-c1ccc(-c3cnn(CC(N)=O)c3)cc1C(c1ccc(Cl)cc1)=N[C@H]2COS(C)(=O)=O"
property_label = "microsomal CLint at 1 µM"
observed = 6.9


Data provenance is patent US9884874B2.
